Hey, just so you know, these numbers are from patent US6509341B1.

# target desc: human ETA receptor (Homo sapiens)
# Sequence (P25101 21-427): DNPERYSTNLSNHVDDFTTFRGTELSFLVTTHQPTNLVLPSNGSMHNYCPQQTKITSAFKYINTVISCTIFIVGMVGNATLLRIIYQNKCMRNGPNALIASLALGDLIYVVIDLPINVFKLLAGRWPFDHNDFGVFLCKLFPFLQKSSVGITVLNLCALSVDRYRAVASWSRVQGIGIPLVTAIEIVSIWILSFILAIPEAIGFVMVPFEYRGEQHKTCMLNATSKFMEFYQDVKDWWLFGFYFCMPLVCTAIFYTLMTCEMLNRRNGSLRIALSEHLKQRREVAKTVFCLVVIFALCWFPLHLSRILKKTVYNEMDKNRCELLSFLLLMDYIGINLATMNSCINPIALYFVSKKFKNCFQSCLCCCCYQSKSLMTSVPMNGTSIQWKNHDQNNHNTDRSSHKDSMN

compound	Ki (nM)
CCCCN(CCCC)C(=O)COC(c1ccccc1)(c1ccccc1)C(Oc1nc(C)cc(OC)n1)C(=O)O (stereo not shown)	3
CCCCN(CCCC)C(=O)COC(c1ccccc1)(c1ccccc1)C(Oc1nc(C)cc(C)n1)C(=O)O (stereo not shown)	3.8
Cc1cc(C)nc(OC(C(=O)O)C(OCC(=O)N(C)c2ccccc2)(c2ccccc2)c2ccccc2)n1 (stereo not shown)	0.4
COc1cc(C)nc(OC(C(=O)O)C(OCC(=O)N2CCc3ccccc3C2)(c2ccccc2)c2ccccc2)n1 (stereo not shown)	1
